Source of measurements: ChEMBL document CHEMBL4316612

Test system: Streptococcus mutans
Experiment: Antibacterial activity against Streptococcus mutans 3289 after 24 hrs by microtiter ELISA
Assay type: functional
Settings: Streptococcus mutans, 3289, 24 h
readout: MIC (µg/mL)
Report the value in µg/mL with no unit label.

[in] # return recorded MIC for entry Cc1ccc(-c2nn(-c3ccccc3)cc2C2N=C(N)NC(N3CCOCC3)=N2)cc1 (stereo not drawn)
[out] 64

[in] # return recorded MIC for entry NC1=NC(c2cn(-c3ccc([N+](=O)[O-])cc3[N+](=O)[O-])nc2-c2ccc(Br)cc2)N=C(N2CCOCC2)N1 (stereo not drawn)
[out] 16

[in] # return recorded MIC for entry CN(C)C1=NC(c2cn(-c3ccccc3)nc2-c2ccc(Cl)cc2)N=C(N)N1 (stereo not drawn)
[out] 32

[in] # return recorded MIC for entry COc1c(N2CCNC(C)C2)c(F)cc2c(=O)c(C(=O)O)cn(C3CC3)c12 (stereo not drawn) [GATIFLOXACIN]
[out] 0.25

[in] # return recorded MIC for entry NC1=NC(c2cn(-c3ccc([N+](=O)[O-])cc3[N+](=O)[O-])nc2-c2ccc(Cl)cc2Cl)N=C(N2CCOCC2)N1 (stereo not drawn)
[out] 16

[in] # return recorded MIC for entry NC1=NC(c2cn(-c3ccc([N+](=O)[O-])cc3[N+](=O)[O-])nc2-c2ccccc2Cl)N=C(N2CCOCC2)N1 (stereo not drawn)
[out] 64

[in] # return recorded MIC for entry CN(C)C1=NC(c2cn(-c3ccccc3)nc2-c2cccc(Cl)c2)N=C(N)N1 (stereo not drawn)
[out] 16

[in] # return recorded MIC for entry NC1=NC(c2cn(-c3ccccc3)nc2-c2ccc(Cl)cc2)N=C(N2CCOCC2)N1 (stereo not drawn)
[out] 32

====

Kindly supply the reported MIC values for the records listed here.
System: Staphylococcus aureus
Assay: Antibacterial activity against methicillin-resistant Staphylococcus aureus CCARM 3506 after 24 hrs by microtiter ELISA
Type: functional
Conditions: CCARM 3506, 24 h

[in] # return recorded MIC for entry Cc1onc(-c2ccccc2)c1C(=O)N[C@@H]1C(=O)N2[C@@H]1SC(C)(C)[C@@H]2C(=O)O
[out] > 64 µg/mL

[in] # return recorded MIC for entry NC1=NC(c2cn(-c3ccc([N+](=O)[O-])cc3[N+](=O)[O-])nc2-c2ccc(Br)cc2)N=C(N2CCOCC2)N1 (stereo unspecified)
[out] 4 µg/mL

[in] # return recorded MIC for entry Cc1ccc(-c2nn(-c3ccccc3)cc2C2N=C(N)NC(N3CCOCC3)=N2)cc1 (stereo unspecified)
[out] 32 µg/mL

[in] # return recorded MIC for entry CN(C)C1=NC(c2cn(-c3ccc([N+](=O)[O-])cc3[N+](=O)[O-])nc2-c2ccccc2F)N=C(N)N1 (stereo unspecified)
[out] 32 µg/mL

[in] # return recorded MIC for entry CN(C)C1=NC(c2cn(-c3ccc([N+](=O)[O-])cc3[N+](=O)[O-])nc2-c2ccc(F)cc2)N=C(N)N1 (stereo unspecified)
[out] 32 µg/mL

[in] # return recorded MIC for entry CN(C)C1=NC(c2cn(-c3ccc([N+](=O)[O-])cc3[N+](=O)[O-])nc2-c2ccccc2)N=C(N)N1 (stereo unspecified)
[out] 64 µg/mL
